- TESTED_ON: T1, soluble EGFR (sEGFR), amino acids 1-619 of mature human EGFR with (Gly)4Ser linker and (His)6 tag (human, UniProt P00533 25-643, biotinylated with Sulfo-NHS-LC-Biotin in the filter lift and the capture ELISA)
- T1 construct: range 1-619; Expressed in CHO-K1 cells; also called biotinylated sEGFR; B-sEGFR
- PROTOCOL_SUMMARY: KinExA, equilibrium, full-length antibody with sEGFR in solution
# maps each entry to its Kd
Lab book: enter the figure in pM, no units written.

Recorded Kd, per entry:
- BINDER: "full-length monoclonal antibody VH2.69 (antibody, V domains shown, Full-length antibody with human Fc) VH: QVTLKESGPVLVKPTETLTLTCTVSGFSLSNWDVHWIRQPPGKALEWLAVIWSGGNTDYNTPFASRLTISKDTSKSQVVLTMTNMDPVDTATYYCARALDYYDYNFAYWGQGTMVTVSS VL: EIVLTQSPDFQSVTPKEKVTITCRASYSIGTNIHWYQQKPDQSPKLLIKYASESISGVPSRFSGSGSGTDFTLTINSLEAEDAATYYCQQNNNWPTSFGGGTKVEIK"
  OUTPUT_UNIT: "pM"
  Kd: 0.68
- BINDER: "full-length monoclonal antibody VH4.21 (antibody, V domains shown, Full-length antibody with human Fc) VH: QVQLQESGPGLVKPSETLSLTCTVSGFSLTNWDVHWIRQPPGKGLEWIGVIWSGGNTDYNTPFTSRVTISVDTSKNQFSLKLSSVTAADTAVYYCARALDYYDYDFAYWGQGTMVTVSS VL: EIVLTQSPDFQSVTPKEKVTITCRASYSIGTNIHWYQQKPDQSPKLLIKYASESISGVPSRFSGSGSGTDFTLTINSLEAEDAATYYCQQNNDWPTSFGGGTKVEIK"
  OUTPUT_UNIT: "pM"
  Kd: 0.188
- BINDER: "full-length monoclonal antibody VH2.87 (antibody, V domains shown, Full-length antibody with human Fc) VH: QVTLKESGPVLVKPTETLTLTCTVSGFSLSNWDVHWIRQPPGKALEWLAVIWSGGATDYNTPFNSRLTISKDTSKSQVVLTMTNMDPVDTATYYCARALDYYDYNFAYWGQGTMVTVSS VL: EIVLTQSPDFQSVTPKEKVTITCRASYSIGTNIHWYQQKPDQSPKLLIKYASESISGVPSRFSGSGSGTDFTLTINSLEAEDAATYYCQQNNNWPTTFGGGTKVEIK"
  OUTPUT_UNIT: "pM"
  Kd: 0.215

Query binder follows.
Which Kd is reported for this binder? full-length monoclonal antibody VH4.15 (antibody, V domains shown, Full-length antibody with human Fc) VH: QVQLQESGPGLVKPSETLSLTCTVSGFSLTNYGVHWIRQPPGKGLEWIGNIWSGGNTDYNTPFTSRVTISVDTSKNQFSLKLSSVTAADTAVYYCARALDYYDYDYAYWGQGTMVTVSS VL: EIVLTQSPDFQSVTPKEKVTITCRASYSIGTNIHWYQQKPDQSPKLLIKYASESISGVPSRFSGSGSGTDFTLTINSLEAEDAATYYCQQNNEWPTSFGGGTKVEIK
0.012
